system: LTB4-mediated CD11b upregulation on human neutrophils; experiment: LTB4-mediated CD11b upregulation on human neutrophils (flow cytometry, anti-CD11b-FITC); format: cell-based; settings: Homo sapiens, Neutrophil, isolated human neutrophils, 3 nM LTB4; semicolons separate individual assay determinations; read-out: CD11b/CD18 IC50
Below, each entry is listed with its recorded IC50.
Answer with a number only, understood to be in nM.

Hey, LTB4-mediated CD11b upregulation on human neutrophils data for `CCCc1c(OCCCOc2cc(O)c(-c3ccn[nH]3)cc2CC)cccc1Oc1ccccc1C(=O)O` : IC50 came out at 74

***
Hey, LTB4-mediated CD11b upregulation on human neutrophils data for `CCCc1c(OCCCOc2cc(O)c(-c3cscn3)cc2CC)cccc1Oc1ccccc1C(=O)O` : IC50 came out at 353

Hey, LTB4-mediated CD11b upregulation on human neutrophils data for `CCCc1c(OCCCOc2cc(O)c(-c3ccoc3)cc2CC)cccc1Oc1ccccc1C(=O)O` : IC50 came out at 31

Hey, LTB4-mediated CD11b upregulation on human neutrophils data for `CCCc1c(OCCCOc2cc(O)c(-c3ccno3)cc2CC)cccc1Oc1ccccc1C(=O)O` : IC50 came out at 175
